measurement target: Plasminogen (Homo sapiens)
Sequence (P00747 97-580 limits assumed): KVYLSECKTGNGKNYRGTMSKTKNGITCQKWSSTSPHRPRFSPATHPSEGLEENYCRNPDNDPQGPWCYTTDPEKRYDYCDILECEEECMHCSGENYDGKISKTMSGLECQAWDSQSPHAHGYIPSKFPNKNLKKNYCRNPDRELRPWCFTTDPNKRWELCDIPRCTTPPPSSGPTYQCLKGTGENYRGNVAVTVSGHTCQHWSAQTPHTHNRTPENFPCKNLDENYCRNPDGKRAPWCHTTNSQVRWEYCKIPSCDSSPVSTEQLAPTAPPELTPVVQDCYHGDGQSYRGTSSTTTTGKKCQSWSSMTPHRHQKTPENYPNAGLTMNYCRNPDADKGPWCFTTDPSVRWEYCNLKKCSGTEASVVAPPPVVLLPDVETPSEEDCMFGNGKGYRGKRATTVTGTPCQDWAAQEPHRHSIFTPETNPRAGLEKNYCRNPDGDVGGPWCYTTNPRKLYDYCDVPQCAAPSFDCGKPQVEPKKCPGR
Sequence (P00747 581-810 limits assumed): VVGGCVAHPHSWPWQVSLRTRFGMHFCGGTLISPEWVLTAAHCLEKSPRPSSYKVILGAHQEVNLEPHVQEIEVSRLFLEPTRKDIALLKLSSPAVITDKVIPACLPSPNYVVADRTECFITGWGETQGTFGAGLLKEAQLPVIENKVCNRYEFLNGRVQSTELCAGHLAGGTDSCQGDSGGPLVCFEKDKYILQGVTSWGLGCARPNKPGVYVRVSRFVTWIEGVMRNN
method: The inhibition constant against human plasmin
pKi: −log10 of the molar value.
parameter: pKi

CCOC(=O)C(Oc1ccc2c(c1)CN(C(=N)N)CC2)c1ccc(OC2CCN(C(C)=N)CC2)cc1 (centres undefined) | 4.60
CC(=N)N1CC[C@H](Oc2ccc([C@H](Cc3ccc4ccc(C(=N)N)cc4c3)C(=O)O)cc2)C1.Cl [DX-9065A HYDROCHLORIDE HYDRATE] | 4.96
CCOC(=O)C(Oc1ccc2c(c1)CN(C(=N)N)CC2)c1ccc(O[C@H]2CCN(C(=N)N)C2)cc1 (some centres undefined) | 4.35

(P) CCOC(=O)C(Oc1ccc2c(c1)CN(C(=N)N)CC2)c1ccc(OC2CCNCC2)cc1 (centres undefined)
(Q) C=CCN1CC[C@H](Oc2ccc(C(Oc3ccc4c(c3)CN(C(=N)N)CC4)C(=O)OCC)cc2)C1 (some centres undefined)
Form field 'greater pKi' accepts P or Q ; which applies? In your reply, give the label of the chosen option.
P
(P: 4.60, Q: 4.30)

====

Parameter 'readout' = Ki; parameter 'system' = Plasminogen (Homo sapiens).
parameter: Ki (µM)

(I) C=CCOC(=O)N1CCC(Oc2ccc(C(Oc3ccc4c(c3)CN(C(=N)N)CC4)C(=O)OCC)cc2)CC1 (centres undefined)
(II) CC(=N)N1CCC(Oc2ccc(C(Oc3ccc4c(c3)CN(C(=N)N)CC4)C(=O)O)cc2)CC1 (centres undefined)
Form field 'greater Ki' accepts I or II ; which applies? In your reply, give the label of the chosen option.
II
